Target: CSK (human)
Experiment: KINOMEscan competition binding
Details: compound 10.0 µM
VALUE KIND: kinase still bound, per cent of control

# MOLECULE, REPORTED VALUE
measured = [
    ("C=CC(=O)Nc1cc(NC(=O)c2ccc(C)c(NC(=O)c3ccno3)c2)cc(C(F)(F)F)c1", "71%"),
    ("O=C(NOC[C@H](O)CO)c1ccc(F)c(F)c1Nc1ccc(I)cc1F", "100%"),
    ("O=C(O)c1ccc(Nc2ncc3c(n2)-c2ccc(Cl)cc2C(c2c(F)cccc2F)=NC3)cc1", "15%"),
]

For every record below, what is its kinase still bound, per cent of control?
1. C=CC(=O)Nc1cccc(Oc2nc(Nc3ccc(N4CCN(C)CC4)cc3OC)ncc2Cl)c1
2. COc1cc(C(=O)NC2CCN(C)CC2)ccc1Nc1ncc2c(n1)N(C1CCCC1)C(C)CC(=O)N2C (centres undefined)
3. Nc1ccc(-c2ccc3ncc4ccc(=O)n(-c5cccc(C(F)(F)F)c5)c4c3c2)cn1
4. OCCCNc1cc(-c2ccnc(Nc3cccc(Cl)c3)n2)ccn1
5. Cc1ccc(C(=O)Nc2cccc(C(F)(F)F)c2)cc1Nc1cncc(C(N)=O)c1
6. CC[C@@H]1C(=O)N(C)c2cnc(Nc3ccc(C(=O)NC4CCN(C)CC4)cc3OC)nc2N1C1CCCC1

Result ::
100%
100%
100%
100%
100%
100%

For every record below, what is its kinase still bound, per cent of control?
1. COc1cc(N2CCN(C)CC2)ccc1Nc1nc(N)c(C(=O)c2c(Cl)cccc2Cl)s1
2. C[C@@H](Oc1cc(-n2cnc3ccc(CN4CCN(C)CC4)cc32)sc1C(N)=O)c1ccccc1C(F)(F)F
3. O=C1Nc2ccc(I)cc2/C1=C/c1cc(Br)c(O)c(Br)c1

Result ::
90%
100%
92%

For every record below, what is its kinase still bound, per cent of control?
1. CCN1CCN(Cc2ccc(Nc3ncc4c(n3)N(C)c3ccccc3C(=O)N4C)cc2C(F)(F)F)CC1
2. Cn1c(=O)n(-c2ccc(C(C)(C)C#N)cc2)c2c3cc(-c4cnc5ccccc5c4)ccc3ncc21

Result ::
93%
100%
